# targetSystem: Plasmepsin IX (Plasmodium falciparum, UniProt Q8ILG2)
# Sequence (Q8ILG2 whole entry): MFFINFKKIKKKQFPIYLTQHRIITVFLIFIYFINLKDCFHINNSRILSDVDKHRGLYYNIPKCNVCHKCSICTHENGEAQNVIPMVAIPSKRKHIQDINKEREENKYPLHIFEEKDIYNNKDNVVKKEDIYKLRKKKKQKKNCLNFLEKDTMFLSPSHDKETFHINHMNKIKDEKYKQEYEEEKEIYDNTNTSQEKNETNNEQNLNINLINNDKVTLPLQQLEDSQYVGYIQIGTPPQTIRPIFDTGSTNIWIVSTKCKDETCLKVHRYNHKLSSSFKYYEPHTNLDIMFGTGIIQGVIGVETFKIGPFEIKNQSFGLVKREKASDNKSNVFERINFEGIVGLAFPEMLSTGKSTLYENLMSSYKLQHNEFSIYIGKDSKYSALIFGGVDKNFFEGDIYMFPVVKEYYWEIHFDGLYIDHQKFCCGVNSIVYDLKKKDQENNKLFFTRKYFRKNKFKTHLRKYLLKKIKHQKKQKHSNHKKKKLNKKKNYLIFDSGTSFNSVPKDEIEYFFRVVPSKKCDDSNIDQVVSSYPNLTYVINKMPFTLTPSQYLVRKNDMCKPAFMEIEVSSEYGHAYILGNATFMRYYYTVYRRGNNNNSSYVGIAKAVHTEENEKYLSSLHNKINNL
# assayProtocol: Inhibition of Plasmodium falciparum PMIX by FRET assay
Entries annotated with measured IC50
Answer in nM, number only, no unit symbol.

- chemicalSmiles: "C[C@H]1C[C@@H](N2C(=N)N[C@](C)(c3cccc(NC(=O)c4cccc(C#N)c4)c3Cl)CC2=O)CCO1"
  quantity: "IC50"
  valueUnits: "nM"
  assayResult: 142

Let us examine a further case.
Prompt line: Report IC50 for C[C@H]1C[C@@H](N2C(=N)N[C@](C)(c3cccc(Nc4ccc(C5CC5)nc4)c3Cl)CC2=O)CCO1 please.
Response line: 250

====

# System: Plasmodium falciparum
# assayProtocol: Antimalarial activity against Plasmodium falciparum Dd2 harbouring Pf-crt, Pf-mdrl,Pf-dhfr, Pf-dhps mutated loci assessed as inhibition of parasite growth pretreated for 48 hrs followed by [3H]-hypoxanthine addition measured after 24 hrs by scintillation counting method
# Format: functional, organism-based
quantity: IC50 (nM)
Answer in nM, number only, no unit symbol.

Prompt line: Form entry - test system: Plasmodium falciparum; read-out: IC50; compound: C[C@H]1C[C@@H](N2C(=N)N[C@](C)(c3cccc(NC(=O)c4cccc(C#N)c4)c3Cl)CC2=O)CCO1
Response line: 18

====

# assayProtocol: Terminal half life in Cynomolgus monkey blood at 1 mg/kg, iv measured at 2 to 72 hrs by LC-MS/MS analysis
# Assay type: ADME, organism-based, Macaca fascicularis
# particulars: whole blood, time 2-72 hrs, read-out: beta t1/2 (converted)
quantity: half-life (h)
Answer in h, number only, no unit symbol.

Prompt line: Report half-life for C[C@H]1C[C@@H](N2C(=N)N[C@](C)(c3cccc(NC(=O)c4cccc(C#N)c4)c3Cl)CC2=O)CCO1 please.
Response line: 4.1

====

# System: Plasmodium falciparum
# assayProtocol: Antimalarial activity against Plasmodium falciparum TM90C2b harbouring Pf-crt, Pf-mdrl,Pfd-hfr, Pf-cytbQ0 mutated loci assessed as inhibition of parasite growth pretreated for 48 hrs followed by [3H]-hypoxanthine addition measured after 24 hrs by scintillation counting method
# Format: functional, organism-based
quantity: IC50 (nM)
Answer in nM, number only, no unit symbol.

- chemicalSmiles: "C[C@@]1(c2cccc(Nc3ccccc3)c2Cl)CC(=O)N(C2CCOCC2)C(=N)N1"
  valueUnits: "nM"
  IC50: 62

Prompt line: Report IC50 for C[C@H]1C[C@@H](N2C(=N)N[C@](C)(c3cccc(NC(=O)c4cccc(C#N)c4)c3Cl)CC2=O)CCO1 please.
Response line: 15

====

# assayProtocol: Volume of distribution at steady state in Beagle dog blood at 1 mg/kg, iv measured at 2 to 72 hrs by LC-MS/MS analysis
# Type: ADME, organism-based, Canis lupus familiaris
# particulars: whole blood, time 2-72 hrs, read-out: Vdss
quantity: Vd (L/kg)
Answer in L/kg, number only, no unit symbol.

- chemicalSmiles: "C[C@H]1C[C@@H](N2C(=N)N[C@](C)(c3cccc(Nc4ccc(C5CC5)nc4)c3Cl)CC2=O)CCO1"
  Vd, L/kg: 12.5

Let us examine a further case.
Prompt line: Report Vd for C[C@H]1C[C@@H](N2C(=N)N[C@](C)(c3cccc(NC(=O)c4cccc(C#N)c4)c3Cl)CC2=O)CCO1 please.
Response line: 8.2

====

# assayProtocol: Volume of distribution at steady state in Cynomolgus monkey blood at 1 mg/kg, iv measured at 2 to 72 hrs by LC-MS/MS analysis
# Type: ADME, organism-based, Macaca fascicularis
# particulars: whole blood, time 2-72 hrs, read-out: Vdss
quantity: Vd (L/kg)
Answer in L/kg, number only, no unit symbol.

Prompt line: Report Vd for C[C@H]1C[C@@H](N2C(=N)N[C@](C)(c3cccc(NC(=O)c4cccc(C#N)c4)c3Cl)CC2=O)CCO1 please.
Response line: 3.07

====

Entries annotated with measured clearance
# assayProtocol: Clearance in Beagle dog blood at 1 mg/kg, iv measured at 2 to 72 hrs by LC-MS/MS analysis
# Type: ADME, organism-based, Canis lupus familiaris
# particulars: whole blood, time 2-72 hrs
Answer in mL/min/kg, number only, no unit symbol.

- chemicalSmiles: "C[C@H]1C[C@@H](N2C(=N)N[C@](C)(c3cccc(NC(=O)c4cccc(C#N)c4)c3Cl)CC2=O)CCO1"
  assayResult: 12.9

Prompt line: Report clearance for C[C@H]1C[C@@H](N2C(=N)N[C@](C)(c3cccc(Nc4ccc(C5CC5)nc4)c3Cl)CC2=O)CCO1 please.
Response line: 7.28

====

# assayProtocol: Inhibition of BACE (unknown origin)
# Design: species or system Homo sapiens
pIC50: −log10 of the molar value.
quantity: pIC50

Prompt line: Report pIC50 for [H]/N=C1\N[C@](C)(c2cccc(Nc3cnc(C4CC4)nc3)c2Cl)CC(=O)N1[C@H]1CCO[C@@H](C)C1 please.
Response line: < 5.00

====

# assayProtocol: AUC in Sprague-Dawley rat blood at 1 mg/kg, iv measured at 2 to 72 hrs by LC-MS/MS analysis
# Assay type: ADME, organism-based
# Design: time lower 2 hrs, dose 1 mg/kg, time upper 72 hrs, route iv
# particulars: whole blood
Entries annotated with measured AUC
Answer in µM·h, number only, no unit symbol.

- chemicalSmiles: "C[C@H]1C[C@@H](N2C(=N)N[C@](C)(c3cccc(Nc4ccc(C5CC5)nc4)c3Cl)CC2=O)CCO1"
  valueUnits: "µM·h"
  AUC: 1.75

Let us examine a further case.
Prompt line: Report AUC for C[C@H]1C[C@@H](N2C(=N)N[C@](C)(c3cccc(NC(=O)c4cccc(C#N)c4)c3Cl)CC2=O)CCO1 please.
Response line: 0.793

====

# Test system: Plasmodium falciparum
# assayProtocol: Antimalarial activity against DDD107498 resistant Plasmodium falciparum Dd2 harbouring pfeef2 mutated loci assessed as inhibition of parasite growth pretreated for 48 hrs followed by [3H]-hypoxanthine addition measured after 24 hrs by scintillation counting method
# Type: functional, organism-based
Entries annotated with measured IC50
Answer in nM, number only, no unit symbol.

- chemicalSmiles: "C[C@H]1C[C@@H](N2C(=N)N[C@](C)(c3cccc(NC(=O)c4cccc(C#N)c4)c3Cl)CC2=O)CCO1"
  valueUnits: "nM"
  IC50: 22

Let us examine a further case.
Prompt line: Report IC50 for C[C@@]1(c2cccc(Nc3ccccc3)c2Cl)CC(=O)N(C2CCOCC2)C(=N)N1 please.
Response line: 82

====

# assayProtocol: Oral bioavailability in Cynomolgus monkey blood at 10 mg/kg measured at 2 to 72 hrs by LC-MS/MS analysis
# Assay type: ADME, organism-based, Macaca fascicularis
# particulars: time 2-72 hrs
quantity: bioavailability (%)
Answer in %, number only, no unit symbol.

Prompt line: Report bioavailability for C[C@H]1C[C@@H](N2C(=N)N[C@](C)(c3cccc(NC(=O)c4cccc(C#N)c4)c3Cl)CC2=O)CCO1 please.
Response line: 39

====

# assayProtocol: AUC in Cynomolgus monkey blood at 10 mg/kg, po measured at 2 to 72 hrs by LC-MS/MS analysis
# Type: ADME, organism-based, Macaca fascicularis
# Parameters: dose 10 mg/kg, time 2-72 hrs, route po
quantity: AUC (µM·h)
Answer in µM·h, number only, no unit symbol.

Prompt line: Report AUC for C[C@H]1C[C@@H](N2C(=N)N[C@](C)(c3cccc(NC(=O)c4cccc(C#N)c4)c3Cl)CC2=O)CCO1 please.
Response line: 7.38

====

# assayProtocol: Clearance in Cynomolgus monkey blood at 1 mg/kg, iv measured at 2 to 72 hrs by LC-MS/MS analysis
# Assay type: ADME, organism-based, Macaca fascicularis
# particulars: whole blood, time 2-72 hrs
quantity: clearance (mL/min/kg)
Answer in mL/min/kg, number only, no unit symbol.

Prompt line: Report clearance for C[C@H]1C[C@@H](N2C(=N)N[C@](C)(c3cccc(NC(=O)c4cccc(C#N)c4)c3Cl)CC2=O)CCO1 please.
Response line: 18.9

Reference for the values: ChEMBL document CHEMBL5108065
